system: Staphylococcus sp.; test: In vitro antibacterial evaluation: minimum inhibitory concentration (MIC), broth dilution method; assay type: cell-based; settings: strain GC 4547
property-measured: MIC Coagulase Negative Staphylococcus (GC 4547) (mg/L)

{"compound": "CC(c1ccccc1)C1NC(=O)CNC(=O)C(CO)NC(=O)C(C(O)C2CNC(=N)N2C2OC(CO)C(O)C(O)C2O)NC(=O)C(C(O)C2CNC(=N)N2)NC(=O)C(Cc2ccc(OC3OC(CO)C(OC4OC5COC(CC6CCCCC6)OC5C(O)C4O)C(O)C3O)cc2)NC1=O (stereo not shown)", "numeric-readout": 2}
{"compound": "CC(c1ccc(Cl)cc1)C1NC(=O)CNC(=O)C(CO)NC(=O)C(C(O)C2CNC(=N)N2C2OC(CO)C(O)C(O)C2O)NC(=O)C(C(O)C2CNC(=N)N2)NC(=O)C(Cc2ccc(OC3OC(CO)C(OC4OC5COC(C6CCCCC6)OC5C(O)C4O)C(O)C3O)cc2)NC1=O (stereo not shown)", "numeric-readout": 1}
{"compound": "CC(C)=CCCC(C)=CCOc1ccc(C2OCC3OC(OC4C(CO)OC(Oc5ccc(CC6NC(=O)C(C(C)c7ccccc7)NC(=O)CNC(=O)C(CO)NC(=O)C(C(O)C7CNC(=N)N7C7OC(CO)C(O)C(O)C7O)NC(=O)C(C(O)C7CNC(=N)N7)NC6=O)cc5)C(O)C4O)C(O)C(O)C3O2)cc1 (stereo not shown)", "numeric-readout": 4}
{"compound": "CCCC(CCC)C(=O)OCC1OC(OC2C(CO)OC(Oc3ccc(CC4NC(=O)C(C(C)c5ccccc5)NC(=O)CNC(=O)C(CO)NC(=O)C(C(O)C5CNC(=N)N5C5OC(CO)C(O)C(O)C5O)NC(=O)C(C(O)C5CNC(=N)N5)NC4=O)cc3)C(O)C2O)C(O)C(O)C1O (stereo not shown) [Example 99c]", "numeric-readout": 1}
{"compound": "CCC(CC)C1OCC2OC(OC3C(CO)OC(Oc4ccc(CC5NC(=O)C(C(C)c6ccccc6)NC(=O)CNC(=O)C(CO)NC(=O)C(C(O)C6CNC(=N)N6C6OC(CO)C(O)C(O)C6O)NC(=O)C(C(O)C6CNC(=N)N6)NC5=O)cc4)C(O)C3O)C(O)C(O)C2O1 (stereo not shown)", "numeric-readout": 1}
{"compound": "CCCCCC(=O)OCC1OC(Oc2ccc(CC3NC(=O)C(C(C)c4ccccc4)NC(=O)CNC(=O)C(CO)NC(=O)C(C(O)C4CNC(=N)N4C4OC(CO)C(O)C(O)C4O)NC(=O)C(C(O)C4CNC(=N)N4)NC3=O)cc2)C(O)C(O)C1OC1OC(CO)C(O)C(O)C1O (stereo not shown) [Example 95a]", "numeric-readout": 4}
